Values were extracted from patent US12208088B2.

Dear all, this message contains Ki results, target or system UniProtKB Q92918.
Readout Label: Ki (nM)

- Molecule: "CN(C)C(=O)c1c(N)ccc(-c2cnc3c(c2Cl)[C@]2(CC[C@@H](C(C)(C)O)CC2)CN3)c1F [Compound 255b]"
  Target Entity: "UniProtKB Q92918"
  Units Symbol: "nM"
  Number: 12
- Molecule: "Clc1c(-c2ccc(-n3cccn3)cc2)cnc2c1C1(CC=CC1)CN2 [Compound 215]"
  Target Entity: "UniProtKB Q92918"
  Units Symbol: "nM"
  Number: 676
- Molecule: "Cn1cc([C@@H]2CCCN2C(=O)c2cccc(-c3cnc4c(c3)C3(CC3)CN4)c2F)cn1 (single isomer, unassigned) [Compound 174b]"
  Target Entity: "UniProtKB Q92918"
  Units Symbol: "nM"
  Number: 582
- Molecule: "CC(C)[C@@H]1C[C@@]12CNc1ncc(-c3ccc(N)c(C(=O)N(C)C)c3F)cc12 (single isomer, unassigned) [Compound 234c]"
  Target Entity: "UniProtKB Q92918"
  Units Symbol: "nM"
  Number: 103
- Molecule: "CCC[C@@H]1C[C@@]12CNc1ncc(-c3ccc(N)c(C(=O)N(C)C)c3F)cc12 (single isomer, unassigned) [Compound 217c]"
  Target Entity: "UniProtKB Q92918"
  Units Symbol: "nM"
  Number: 67.9
- Molecule: "CC(C)[C@@H]1C[C@]12CNc1ncc(-c3ccc(N)c(C(=O)N(C)C)c3F)c(Cl)c12 (single isomer, unassigned) [Compound 193b]"
  Target Entity: "UniProtKB Q92918"
  Units Symbol: "nM"
  Number: 1.41
- Molecule: "Nc1cc(-c2cnc3c(c2)C2(CC2)CN3)cc(-c2ncccc2CO)c1 [Compound 10]"
  Target Entity: "UniProtKB Q92918"
  Units Symbol: "nM"
  Number: 12.7

---

Dear all, this message contains Ki results, target or system HPK1 (Homo sapiens (Human), UniProt Q92918).

- Molecule: "N#CCc1ccc2[nH]cc(-c3cnc4c(c3)C3(CC3)CN4)c2c1 [Compound 342]"
  Units Symbol: "nM"
  Ki: 73.4
- Molecule: "CN(C)C(=O)c1c(N)ccc(-c2cnc3c(c2Cl)[C@]2(CC[C@@H](O)C2)CN3)c1F [Compound 38a]"
  Units Symbol: "nM"
  Ki: 24.2
- Molecule: "CN(C)C(=O)c1c(N)ccc(-c2cnc3c(c2Cl)[C@@]2(CC[C@@H](C(N)=O)C2)CN3)c1F (single isomer, unassigned) [Compound 100b]"
  Units Symbol: "nM"
  Ki: 1.74
- Molecule: "C[C@@H]1C[C@@]12CNc1ncc(-c3ccc(N)c(C(=O)N(C)C)c3F)cc12 [Compound 86c]"
  Units Symbol: "nM"
  Ki: 3.25

---

Dear all, this message contains Ki results, target or system HPK1 (Homo sapiens (Human)).

- Compound: "NC(=O)C1(c2cccc(-c3cnc4c(c3Cl)C3(CC=CC3)CN4)c2F)CC1 [Compound 265]"
  Target Entity: "HPK1 (Homo sapiens (Human))"
  Ki: "108 nM"
- Compound: "CN(C)C(=O)c1c(N)ccc(-c2cnc3c(c2Cl)[C@]2(CC[C@H](O)C2)CN3)c1F [Compound 38c]"
  Target Entity: "HPK1 (Homo sapiens (Human))"
  Ki: "8.47 nM"
- Compound: "CN(C)C(=O)c1c(N)ccc(-c2cnc3c(c2Cl)[C@]2(CC[C@H](n4ccc(N)n4)C2)CN3)c1F (relative stereo) [Compound 133a]"
  Target Entity: "HPK1 (Homo sapiens (Human))"
  Ki: "34 nM"
- Compound: "N#C[C@H]1CCCN1C(=O)c1cccc(-c2cnc3c(c2)C2(CC2)CN3)c1F [Compound 154a]"
  Target Entity: "HPK1 (Homo sapiens (Human))"
  Ki: "14.2 nM"
- Compound: "CN(C)C(=O)c1c(N)ccc(-c2cnc3c(c2Cl)[C@]2(CC[C@H](n4ccnn4)C2)CN3)c1F [Compound 90a]"
  Target Entity: "HPK1 (Homo sapiens (Human))"
  Ki: "51.8 nM"
- Compound: "Clc1c(-c2cccc3[nH]ncc23)cnc2c1C1(CC=CC1)CN2 [Compound 286]"
  Target Entity: "HPK1 (Homo sapiens (Human))"
  Ki: "120 nM"
- Compound: "CN(C)CCN(C)C(=O)c1c(N)ccc(-c2cnc3c(c2Cl)[C@]2(CC[C@](C)(C#N)C2)CN3)c1F (single isomer, unassigned) [Compound 271a]"
  Target Entity: "HPK1 (Homo sapiens (Human))"
  Ki: "24.9 nM"
- Compound: "CC1(O)C(=O)Nc2ccc(-c3cnc4c(c3)C3(CC3)CN4)cc21 (centres unmarked) [Compound 20]"
  Target Entity: "HPK1 (Homo sapiens (Human))"
  Ki: "212 nM"
- Compound: "C[C@]1(C#N)CC[C@@]2(CNc3ncc(-c4c[nH]c5ccc(C#N)cc45)c(Cl)c32)C1 (relative stereo) [Compound 330a]"
  Target Entity: "HPK1 (Homo sapiens (Human))"
  Ki: "73.9 nM"
- Compound: "CN(C)C(=O)c1c(N)ccc(-c2cnc3c(c2Cl)[C@]2(CC[C@@H](C(N)=O)CC2)CN3)c1F [Compound 235a]"
  Target Entity: "HPK1 (Homo sapiens (Human))"
  Ki: "46.7 nM"
- Compound: "COc1c(-c2ccc(N)c(C(=O)N(C)C)c2F)cnc2c1[C@]1(CC[C@H](O)CC1)CN2 [Compound 113b]"
  Target Entity: "HPK1 (Homo sapiens (Human))"
  Ki: "15.1 nM"
- Compound: "CN(C)C(=O)c1c(N)ccc(-c2cnc3c(c2Cl)[C@]2(CC[C@@H](CC(N)=O)C2)CN3)c1F (single isomer, unassigned) [Compound 135c]"
  Target Entity: "HPK1 (Homo sapiens (Human))"
  Ki: "2.95 nM"
- Compound: "CN(C)C(=O)c1c(N)ccc(-c2cnc3c(c2Cl)[C@]2(CC[C@@H](CO)CC2)CN3)c1F [Compound 248b]"
  Target Entity: "HPK1 (Homo sapiens (Human))"
  Ki: "4.89 nM"
- Compound: "O=C1NCCC1c1cccc(-c2cnc3c(c2Cl)C2(CC2)CN3)c1 (centres unmarked) [Compound 73]"
  Target Entity: "HPK1 (Homo sapiens (Human))"
  Ki: "26.1 nM"
- Compound: "Cc1nc(N)nn1[C@H]1CC[C@@]2(CNc3ncc(-c4ccc(N)c(C(=O)N(C)C)c4F)c(Cl)c32)C1 (relative stereo) [Compound 157a]"
  Target Entity: "HPK1 (Homo sapiens (Human))"
  Ki: "109 nM"
- Compound: "O=C1CCCCN1c1cccc2c(-c3cnc4c(c3)C3(CC3)CN4)c[nH]c12 [Compound 299]"
  Target Entity: "HPK1 (Homo sapiens (Human))"
  Ki: "88.9 nM"
- Compound: "CN(C)C(=O)c1c(N)ccc(-c2cnc3c(c2)[C@]2(CN3)C[C@H](CC(N)=O)C2)c1F [Compound 102a]"
  Target Entity: "HPK1 (Homo sapiens (Human))"
  Ki: "67 nM"
- Compound: "COc1c(-c2c[nH]c3ccc(C#N)cc23)cnc2c1C1(CC1)CN2 [Compound 315]"
  Target Entity: "HPK1 (Homo sapiens (Human))"
  Ki: "34.4 nM"
- Compound: "CN(C)C(=O)c1c(N)ccc(-c2cnc3c(c2Cl)[C@]2(CC[C@H](CN)CC2)CN3)c1F [Compound 258b]"
  Target Entity: "HPK1 (Homo sapiens (Human))"
  Ki: "150 nM"
- Compound: "Nc1ccc(-c2cnc3c(c2)C2(CC2)CN3)nc1C(=O)N1CC[C@@H](O)C1 [Compound 290b]"
  Target Entity: "HPK1 (Homo sapiens (Human))"
  Ki: "895 nM"
- Compound: "Clc1c(-c2ccc3[nH]nnc3c2)cnc2c1C1(CC=CC1)CN2 [Compound 276]"
  Target Entity: "HPK1 (Homo sapiens (Human))"
  Ki: "252 nM"
- Compound: "CN(C)C(=O)c1c(N)ccc(-c2cnc3c(c2Cl)[C@]2(CC[C@](C)(C#N)CC2)CN3)c1F [Compound 250a]"
  Target Entity: "HPK1 (Homo sapiens (Human))"
  Ki: "8.49 nM"
- Compound: "Cc1c(CC#N)ccnc1-c1cccc(-c2cnc3c(c2Cl)[C@]2(CC[C@](C)(C(N)=O)C2)CN3)c1F (single isomer, unassigned) [Compound 267a]"
  Target Entity: "HPK1 (Homo sapiens (Human))"
  Ki: "110 nM"
